- measurement_target: T1, biotinylated hOX40L (R&D Systems, biotinylated in house) (human, UniProt P23510 51-183, biotinylated with Sulfo-NHS-LC-Biotin, sites not stated)
- T1 construct: same bought protein as m10, biotinylated; also called biotinylated OX40L
- T1 sequence: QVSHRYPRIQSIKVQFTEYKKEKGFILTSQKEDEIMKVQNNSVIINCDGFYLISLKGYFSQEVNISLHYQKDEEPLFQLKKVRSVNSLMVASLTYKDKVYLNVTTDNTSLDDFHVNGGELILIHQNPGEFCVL
- protocol_notes: hOX40L/hOX40 AlphaScreen, native sample
measurement_type: pIC50
To interpret pIC50, take it as minus log10 of a concentration measured in moles per litre.

[
  {
    "binder": "OX40L075 (VHH, not shown: small tags and cut ends) VHH: EVQLVESGGGLVQPGGSLRLSCAASGRSFSTYIMGWFRQAPGKEREFVATISRSGITTRSADSVKGRFTISRDNSKNTVYLQMNSLRPEDTAVYYCAAGPYVEQTLGLYQTLGPWDYWGQGTLVTVSS",
    "pIC50": 9.51
  }
]

QUERY: Query (binder): OX40L01B11 (VHH, monovalent Nanobody from E. coli; not shown: C-terminal c-myc and His6 tag) VHH: EVQLVESGGGLVQAGGSLRLSCVASGRSFSTYIMGWFRQAPGKEREFVATISRSGITTRSADSVKGRFTISRDNAKNTVYLQMNSLKPEDTAVYYCAAGPYVEQTLGLYQTLGPWDYWGQGTQVTVSS ; field requested: pIC50
RESULT: 9.27

QUERY: Same question, OX40L039 (VHH, not shown: small tags and cut ends) VHH: DVQLVESGGGLVQPGGSLRLSCAASGRTFSSIYAKGWFRQAPGKEREFVAAISRSGRSTSYADSVKGRFTISRDNSKNTVYLQMNSLRPEDTAVYYCAAVGGATTVTASEWDYWGQGTLVTVSS this time
RESULT: 10.30

QUERY: Same question, OX40L028 (VHH, not shown: small tags and cut ends) VHH: DVQLVESGGGLVQPGGSLRLSCAASGRTFSSIYAKGWFRQAPGKEREFVAAISRSGRSTSYADSVKGRFTISRDNAKNTVYLQMNSLRPEDTAVYYCAAVGGATTVTASEWDYWGLGTLVTVSS this time
RESULT: 10.15

QUERY: Same question, OX40L01E07 (VHH, monovalent Nanobody from E. coli; not shown: C-terminal c-myc and His6 tag) VHH: EVQLVESGGGLVQAGGSLRLSCAASGRTFSSIYAKGWFRQAPGKEREFVAAISRSGRSTSYADSVKGRFTISRDNAKNTVYLQMNSLKPEDTAVYYCAAVGGATTVTASEWDYWGLGTQVTVSS this time
RESULT: 10.00

QUERY: Same question, OX40L024 (VHH, not shown: small tags and cut ends) VHH: EVQLVESGGGLVQPGGSLRLSCAASGRTFSSIYAKGWFRQAPGKEREFVAAISRSGRSTSYADSVKGRFTISRDNAKNTVYLQMNSLRPEDTAVYYCAAVGGATTVTASEWDYWGLGTLVTVSS this time
RESULT: 10.15

QUERY: Same question, OX40L026 (VHH, not shown: small tags and cut ends) VHH: EVQLVESGGGLVQPGGSLRLSCAASGRTFSSIYAKGWFRQAPGKEREFVAAISRSGRSTSYADSVKGRFTISRDNAKNTVYLQMNSLRPEDTAVYYCAAVGGATTVTASEWDYWGQGTLVTVSS this time
RESULT: 10.30

QUERY: Same question, OX40L025 (VHH, not shown: small tags and cut ends) VHH: EVQLVESGGGLVQPGGSLRLSCAASGRTFSSIYAKGWFRQAPGKEREFVAAISRSGRSTSYADSVKGRFTISRDNSKNTVYLQMNSLRPEDTAVYYCAAVGGATTVTASEWDYWGLGTLVTVSS this time
RESULT: 10.22

QUERY: Same question, OX40L027 (VHH, not shown: small tags and cut ends) VHH: EVQLVESGGGLVQPGGSLRLSCAASGRTFSSIYAKGWFRQAPGKEREFVAAISRSGRSTSYADSVKGRFTISRDNSKNTVYLQMNSLRPEDTAVYYCAAVGGATTVTASEWDYWGQGTLVTVSS this time
RESULT: 10.15
